test: recombinant UMI read abundance after kanamycin selection (control-corrected) (log10(CPM+1)); higher = more efficient recombination; extreme values may be limits of the assay; sequences stand for … in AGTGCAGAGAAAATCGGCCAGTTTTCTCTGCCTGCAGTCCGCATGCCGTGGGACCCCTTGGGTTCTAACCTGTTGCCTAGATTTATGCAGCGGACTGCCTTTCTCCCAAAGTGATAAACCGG…AGGTTGGTTTCACT; site = the 11-nt donor;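 note: IS621 bridge recombinase in Escherichia coli cells against a fixed T5 target plasmid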
Please provide measured recombinant UMI read abundance (log10) for the entries that follow.
Lab note: write the figure by itself, no unit.

Query: # return recorded recombinant UMI read abundance (log10) for input GTTAGAACATGGACCGGTTTTCCCGGTAATCCGTATTTGCC (site GTTAGAACTGG)
Response: 0

Query: Tell me its recombinant UMI read abundance (log10) given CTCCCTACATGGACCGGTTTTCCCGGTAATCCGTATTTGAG (site CGCCCTACTCT) as the entry.
Response: 0.0122

Query: Please report the measured recombinant UMI read abundance (log10) for CCAGGTGCATGGACCGGTTTTCCCGGTAATCCGTATTTGAT (site GCAGGTGCTAT)
Response: 0.00654

Query: Identify the reported recombinant UMI read abundance (log10) for the following entry. CAGAATACATGGACCGGTTTTCCCGGTAATCCGTATTTGCA (site GAGAATACTTG)
Response: 0

Query: Read off the recorded recombinant UMI read abundance (log10) for AGCACTACATGGACCGGTTTTCCCGGTAATCCGTATTTGAC (site AGAACTACTGT)
Response: 1.25

Query: Identify measured recombinant UMI read abundance (log10) corresponding to AAACTTGCATGGACCGGTTTTCCCGGTAATCCGTATTTGGC (site AAACTTGCTGC)
Response: 0

Query: Tell us which recombinant UMI read abundance (log10) value is on record for CGGCTTCCATGGACCGGTTTTCCCGGTAATCCGTATTTGGA (site CGGCTTCCTTC)
Response: 0.00516

Query: Please look at this sequence and report its recombinant UMI read abundance (log10): TCCGGGCCATGGACCGGTTTTCCCGGTAATCCGTATTTGAC (site TCCGGGCCTGT)
Response: 0

Query: Consider the sequence TCCTAGACATGGACCGGTTTTCCCGGTAATCCGTATTTGGG (site CCCTAGACTCC) and give its recorded recombinant UMI read abundance (log10).
Response: 0.0212

Query: Provide one value: measured recombinant UMI read abundance (log10) of CCTAATACATGGACCGGTTTTCCCGGTAATCCGTATTTGCC (site CCTAATACTGG)
Response: 0

Query: Supply recombinant UMI read abundance (log10) value. Item: GGATGGCCATGGACCGGTTTTCCCGGTAATCCGTATTTGCA (site GTATGGCCTTG)
Response: 0

Query: Identify recombinant UMI read abundance (log10) associated with the sequence CTCTAGCCATGGACCGGTTTTCCCGGTAATCCGTATTTGCC (site CACTAGCCTGG)
Response: 0.69

Query: Return value of recombinant UMI read abundance (log10) for input CAGGCCGCATGGACCGGTTTTCCCGGTAATCCGTATTTGAG (site CAGGCCGCTCT) , no commentary.
Response: 0.33

Query: Supply measured recombinant UMI read abundance (log10) of TGTTCACCATGGACCGGTTTTCCCGGTAATCCGTATTTGTA (site TGTTCACCTTA) in your reply.
Response: 0.00651

Query: # return recorded recombinant UMI read abundance (log10) for input TTTGCGGCATGGACCGGTTTTCCCGGTAATCCGTATTTGCC (site TTTGCGGCTCG)
Response: 0.0088

Query: Identify measured recombinant UMI read abundance (log10) corresponding to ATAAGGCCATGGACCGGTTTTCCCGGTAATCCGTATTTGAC (site ATAAGGCCTGG)
Response: 0

Query: Identify measured recombinant UMI read abundance (log10) corresponding to GAATGGCCATGGACCGGTTTTCCCGGTAATCCGTATTTGCT (site GAATGGCCTGG)
Response: 0

Query: Supply reported recombinant UMI read abundance (log10) belonging to this sequence: TGTTCCCCATGGACCGGTTTTCCCGGTAATCCGTATTTGGA (site TGTTCCCCTTG)
Response: 0.00301

The values you see were collected from the supplement of paper PMC11208160.
